- System: bovine serum albumin (BSA)
Entries and their IC50
Note: unit µM is implicit; provide only the numeric part.

The cases that follow already have their IC50 on record.
Compound	Study target	Endpoint label	Readout number
Cn1cnc([N+](=O)[O-])c1Sc1ncnc2nc[nH]c12 [Azathioprine]	bovine serum albumin (BSA)	IC50	400
CN(C)[C@@H]1C(O)=C(C(N)=O)C(=O)[C@@]2(O)C(O)=C3C(=O)c4c(O)ccc(Cl)c4[C@@H](O)[C@H]3C[C@@H]12 [Demeclocycline]	bovine serum albumin (BSA)	IC50	19
Oc1ccc(O)cc1 [Hydroquinone]	bovine serum albumin (BSA)	IC50	250

We now examine a further compound.
Prompt: Provide value of IC50 for this record tested with bovine serum albumin (BSA): O=C1C=C(O)C(=O)c2ccccc21 [Lawsone]
Completion: 190
